Data origin, for the record: ChEMBL document CHEMBL5252546

experiment: Volume of distribution at steady state in female Beagle dog at 1 mg/kg,iv measured upto 24 hrs; type: ADME, organism-based, Canis lupus familiaris; settings: in vivo, read-out: Vdss
Property measured: Vd (L/kg)
# value in L/kg; strip the unit string

Asked: Entry `CC(=O)O[C@@]12CO[C@@H]1C[C@H](O)[C@@]1(C)C(=O)[C@H](O)C3=C(C)[C@@H](OC(=O)[C@H](OC(=O)CCC(=O)NCCCC[C@H](NC(=O)CC[C@@H](NC(=O)[C@H](C)NC(=O)/C=C/c4ccc(F)cc4Cl)C(N)=O)C(=O)O)[C@@H](NC(=O)OC(C)(C)C)c4ccccc4)C[C@@](O)([C@@H](OC(=O)c4ccccc4)[C@H]21)C3(C)C` : reported Vd = ?
Given back: 0.204

----------
assay: Cmax in female Beagle dog at 4 mg/kg,iv measured upto 24 hrs; format: ADME, organism-based, Canis lupus familiaris; parameters: time < 24 hrs, dose 4 mg/kg, route iv; settings: in vivo
Property measured: Cmax

Asked: Entry `CC(=O)O[C@@]12CO[C@@H]1C[C@H](O)[C@@]1(C)C(=O)[C@H](O)C3=C(C)[C@@H](OC(=O)[C@H](OC(=O)CCC(=O)NCCCC[C@H](NC(=O)CC[C@@H](NC(=O)[C@H](C)NC(=O)/C=C/c4ccc(F)cc4Cl)C(N)=O)C(=O)O)[C@@H](NC(=O)OC(C)(C)C)c4ccccc4)C[C@@](O)([C@@H](OC(=O)c4ccccc4)[C@H]21)C3(C)C` : reported Cmax = ?
Given back: 30800 ng/mL

----------
test: MRT in mouse tumor implanted with mouse 4T1 cells at 10 mg/kg,iv measured upto 72 hrs; assay type: ADME, organism-based, Neoplasm
Property measured: MRT (h)
# value in h; strip the unit string

Asked: Entry `CC(=O)O[C@@]12CO[C@@H]1C[C@H](O)[C@@]1(C)C(=O)[C@H](O)C3=C(C)[C@@H](OC(=O)[C@H](OC(=O)CCC(=O)NCCCC[C@H](NC(=O)CC[C@@H](NC(=O)[C@H](C)NC(=O)/C=C/c4ccc(F)cc4Cl)C(N)=O)C(=O)O)[C@@H](NC(=O)OC(C)(C)C)c4ccccc4)C[C@@](O)([C@@H](OC(=O)c4ccccc4)[C@H]21)C3(C)C` : reported MRT = ?
Given back: 2.2

----------
assay: AUC (0-infinity) in female rat at 2 mg/kg,iv measured upto 24 hrs; format: ADME, organism-based; set-up: time < 24 hrs, dose 2 mg/kg, route iv; details: in vivo
Property measured: AUC(0-inf) (ng·h/mL)
# value in ng·h/mL; strip the unit string

Asked: Entry `CC(=O)O[C@@]12CO[C@@H]1C[C@H](O)[C@@]1(C)C(=O)[C@H](O)C3=C(C)[C@@H](OC(=O)[C@H](OC(=O)CCC(=O)NCCCC[C@H](NC(=O)CC[C@@H](NC(=O)[C@H](C)NC(=O)/C=C/c4ccc(F)cc4Cl)C(N)=O)C(=O)O)[C@@H](NC(=O)OC(C)(C)C)c4ccccc4)C[C@@](O)([C@@H](OC(=O)c4ccccc4)[C@H]21)C3(C)C` : reported AUC(0-inf) = ?
Given back: 4330

----------
assay: Clearance in female Beagle dog at 1 mg/kg,iv measured upto 24 hrs; assay type: ADME, organism-based, Canis lupus familiaris; conditions: in vivo
Property measured: clearance

Asked: Entry `CC(=O)O[C@@]12CO[C@@H]1C[C@H](O)[C@@]1(C)C(=O)[C@H](O)C3=C(C)[C@@H](OC(=O)[C@H](OC(=O)CCC(=O)NCCCC[C@H](NC(=O)CC[C@@H](NC(=O)[C@H](C)NC(=O)/C=C/c4ccc(F)cc4Cl)C(N)=O)C(=O)O)[C@@H](NC(=O)OC(C)(C)C)c4ccccc4)C[C@@](O)([C@@H](OC(=O)c4ccccc4)[C@H]21)C3(C)C` : reported clearance = ?
Given back: 11.2 mL/min/kg
